test system: Pseudomonas aeruginosa K799/WT; assay: In vitro assay of antibacterial activity (agar dilution MIC); type: cell-based; details: BHI agar, 35-37 °C, 20 to 24 hours, unit assumed
Outcome Measure: MIC

Task: Identify the reported MIC for the following entry. CC[C@H]1OC(=O)[C@H](C)[C@@H](O[C@H]2C[C@@](C)(OC)[C@@H](O)[C@H](C)O2)[C@H](C)[C@@H](O[C@@H]2O[C@H](C)C[C@H](N(C)C)[C@H]2O)[C@](C)(OCC(O)Cn2ccnc2)C[C@@H](C)C(=O)[C@H](C)[C@@H](O)[C@]1(C)O (stereo partly shown) [Example 5]
Result: > 100 µg/mL

Task: Identify the reported MIC for the following entry. CC[C@H]1OC(=O)[C@H](C)[C@@H](O[C@H]2C[C@@](C)(OC)[C@@H](O)[C@H](C)O2)[C@H](C)[C@@H](O[C@@H]2O[C@H](C)C[C@H](N(C)C)[C@H]2O)[C@](C)(OCC(O)CN=[N+]=[N-])C[C@@H](C)C(=O)[C@H](C)[C@@H](O)[C@]1(C)O (stereo partly shown) [Example 11]
Result: > 100 µg/mL

Task: Identify the reported MIC for the following entry. CC[C@H]1OC(=O)[C@H](C)[C@@H](O[C@H]2C[C@@](C)(OC)[C@@H](O)[C@H](C)O2)[C@H](C)[C@@H](O[C@@H]2O[C@H](C)C[C@H](N(C)C)[C@H]2O)[C@](C)(OCC(O)CO)C[C@@H](C)C(=O)[C@H](C)[C@@H](O)[C@]1(C)O (stereo partly shown) [Example 3]
Result: > 100 µg/mL

Task: Identify the reported MIC for the following entry. CC[C@H]1OC(=O)[C@H](C)[C@@H](O[C@H]2C[C@@](C)(OC)[C@@H](O)[C@H](C)O2)[C@H](C)[C@@H](O[C@@H]2O[C@H](C)C[C@H](N(C)C)[C@H]2O)[C@](C)(OCC(C)=O)C[C@@H](C)C(=O)[C@H](C)[C@@H](O)[C@]1(C)O [Example 9]
Result: > 100 µg/mL

Task: Identify the reported MIC for the following entry. CC[C@H]1OC(=O)[C@H](C)[C@@H](O[C@H]2C[C@@](C)(OC)[C@@H](O)[C@H](C)O2)[C@H](C)[C@@H](O[C@@H]2O[C@H](C)C[C@H](N(C)C)[C@H]2O)[C@](C)(O)C[C@@H](C)C(=O)[C@H](C)[C@@H](O)[C@]1(C)O [Ery. A, Erythromycin A, reference compound]
Result: 100 µg/mL

Task: Identify the reported MIC for the following entry. CC[C@H]1OC(=O)[C@H](C)[C@@H](O[C@H]2C[C@@](C)(OC)[C@@H](O)[C@H](C)O2)[C@H](C)[C@@H](O[C@@H]2O[C@H](C)C[C@H](N(C)C)[C@H]2O)[C@](C)(OCC=O)C[C@@H](C)C(=O)[C@H](C)[C@@H](O)[C@]1(C)O [Example 8]
Result: > 100 µg/mL

Task: Identify the reported MIC for the following entry. CC[C@H]1OC(=O)[C@H](C)[C@@H](O[C@H]2C[C@@](C)(OC)[C@@H](O)[C@H](C)O2)[C@H](C)[C@@H](O[C@@H]2O[C@H](C)C[C@H](N(C)C)[C@H]2O)[C@](C)(OCC(O)CNCc2ccccc2)C[C@@H](C)C(=O)[C@H](C)[C@@H](O)[C@]1(C)O (stereo partly shown) [Example 7]
Result: 100 µg/mL
